Test system: Vero
Test: Cytotoxicity against african green monkey Vero cells after 72 hrs by CellTiterGlo assay
Conditions: chlorocebus sabaeus, vero, 72 h
Friendly reminder: CC50 below 8 µg/mL is 1 (yes), at or above is 0 (no).

As a guide, the following entries are already answered.
>  <compound>
[O-][n+]1nc(NC2CCCCC2)[n+]([O-])c2ccc(F)cc21

>  <assigned-label>
1 (yes)

$$$$
>  <compound>
[O-][n+]1nc(N2CCCC2)[n+]([O-])c2ccccc21

>  <assigned-label>
0 (no)

$$$$
>  <compound>
CCCC(C)Nc1n[n+]([O-])c2ccccc2[n+]1[O-] (stereo unspecified)

>  <assigned-label>
0 (no)

$$$$
>  <compound>
[O-][n+]1nc(NC2CC2)[n+]([O-])c2ccc(F)cc21

>  <assigned-label>
1 (yes)

$$$$

In the following, a different compound is considered.
Prompt line: Quick check: does COC(=O)/C=C/n1ccnc1[N+](=O)[O-] have CC50 under 8 µg/mL?
Response line: 0 (no)

----------
Test system: Vero
Assay: Cytotoxicity against african green monkey Vero cells after 72 hrs by CellTiterGlo assay
Conditions: chlorocebus sabaeus, vero, 72 h
Label TRUE when CC50 is strictly below 4 µg/mL; otherwise label FALSE.

Some solved entries appear below for comparison.
>  <compound>
[O-][n+]1nc(NC2CCCCC2)[n+]([O-])c2ccc(Cl)cc21

>  <assigned-label>
TRUE

$$$$
>  <compound>
CN(C)c1n[n+]([O-])c2cc3c(cc2[n+]1[O-])CCC3

>  <assigned-label>
FALSE

$$$$
>  <compound>
NNC(=O)c1ccncc1

>  <assigned-label>
FALSE

$$$$
>  <compound>
O=S1(=O)CCN(c2n[n+]([O-])c3cc4c(cc3[n+]2[O-])CCC4)CC1

>  <assigned-label>
FALSE

$$$$
>  <compound>
Cc1ncc([N+](=O)[O-])n1CCO

>  <assigned-label>
FALSE

$$$$

Prompt line: Could you please tell me whether CC50 recorded for CCNc1n[n+]([O-])c2cc(Br)ccc2[n+]1[O-] is less than 4 µg/mL?
Response line: FALSE

Prompt line: Now the same for [O-][n+]1nc(NC2CCC2)[n+]([O-])c2ccc(F)cc21
Response line: TRUE

Prompt line: Try the compound CC(=O)Nc1cc(/C=C\c2ccc([N+](=O)[O-])o2)ns1
Response line: FALSE

----------
Tested on: Mycobacterium tuberculosis
Test: Antitubercular activity against Mycobacterium tuberculosis H37Rv incubated for 10 days in anaerobic condition followed by 48 hrs incubation in aerobic condition by LORA assay
Type: functional
# key: entry, value: MIC90
State the answer as a number, implicitly in µg/mL.

Prompt line: What value of MIC90 has been recorded for this entry: CCNc1n[n+]([O-])c2cc(Br)ccc2[n+]1[O-]
Response line: 0.46

----------
Tested on: Mycobacterium tuberculosis
Test: Antitubercular activity against Mycobacterium tuberculosis H37Rv incubated for 10 days in anaerobic condition followed by 48 hrs incubation in aerobic condition by LORA assay
Assay type: functional
experimental-endpoint: MIC90

Below, 2 compounds whose answers are already recorded.
>  <molecule>
COCCNC(=O)c1ccc2c(c1)[n+]([O-])c(O)c(C#N)[n+]2[O-]

>  <MIC90>
> 32 µg/mL

$$$$
>  <molecule>
[O-][n+]1nc(NC2CCC2)[n+]([O-])c2ccc(Cl)cc21

>  <MIC90>
< 0.12 µg/mL

$$$$

// below: MIC90 requested for another compound
Prompt line: Given the compound NNC(=O)c1ccncc1 , what is its reported MIC90?
Response line: > 20 µg/mL

----------
# key: entry, value: CC50
Tested on: Vero
Test: Cytotoxicity against african green monkey Vero cells after 72 hrs by CellTiterGlo assay
Conditions: chlorocebus sabaeus, vero, 72 h
Form entry: value (µg/mL) — number only.

Prompt line: For the compound [O-][n+]1nc(NC2CC2)[n+]([O-])c2ccc(Cl)cc21 , what CC50 is on record?
Response line: 1.3

Prompt line: Then this compound: CCNc1n[n+]([O-])c2cccc(C)c2[n+]1[O-]
Response line: 22

Prompt line: Now the compound CCN(CC)c1n[n+]([O-])c2ccccc2[n+]1[O-]
Response line: 12

Prompt line: Consider next the compound CC(C)(C)C1CCC(Nc2n[n+]([O-])c3ccccc3[n+]2[O-])CC1 (centres undefined) in the same way.
Response line: 2.3

Prompt line: Queued: [O-][n+]1nc(NC2CC2)[n+]([O-])c2ccccc21
Response line: 21

Prompt line: Cool, now CC(C)(C)Nc1n[n+]([O-])c2ccccc2[n+]1[O-]
Response line: 8

Prompt line: Try this compound next: CCc1n[n+]([O-])c2ccccc2[n+]1[O-]
Response line: 38

Prompt line: Queued: [O-][n+]1nc(NC2CCCCC2)[n+]([O-])c2ccccc21
Response line: 8.9

Prompt line: For [O-][n+]1nc(N2CCCCC2)[n+]([O-])c2cc3c(cc21)CCC3 then?
Response line: 21

Prompt line: Now consider Cc1cccc2c1[n+]([O-])c(NC1CCCC1)n[n+]2[O-] and answer again.
Response line: 3.7

----------
System: Mycobacterium tuberculosis
Assay: Antitubercular activity against Mycobacterium tuberculosis H37Rv incubated for 10 days in anaerobic condition followed by 48 hrs incubation in aerobic condition by LORA assay
Assay type: functional
Rule: measured MIC90 below 0.8 mg/L gets condition met; anything equal to or greater than 0.8 mg/L gets condition not met.

>  <molecule>
CC(C)(C)C1CCC(Nc2n[n+]([O-])c3ccccc3[n+]2[O-])CC1 (configuration not stated)

>  <assigned-label>
condition met

$$$$

Prompt line: Determine if Cc1cccc2c1[n+]([O-])c(NC1CCCC1)n[n+]2[O-] shows MIC90 strictly lower than 0.8 mg/L.
Response line: condition met

Prompt line: Record: CC(=O)Nc1cc(/C=C\c2ccc([N+](=O)[O-])o2)ns1
Response line: condition not met

Prompt line: What would you report for [O-][n+]1nc(NC2CCCC2)[n+]([O-])c2ccc(Br)cc21 ?
Response line: condition met

Prompt line: Next molecule: CS(=O)(=O)N1CCN(c2n[n+]([O-])c3cc4c(cc3[n+]2[O-])CCC4)CC1
Response line: condition not met

Prompt line: # repeat for [O-][n+]1nc(NC2CCC2)[n+]([O-])c2ccccc21
Response line: condition not met

Prompt line: Next up: [O-][n+]1nc(NC2CCCCCC2)[n+]([O-])c2ccccc21
Response line: condition met

----------
Tested on: Vero
Assay: Cytotoxicity against african green monkey Vero cells after 72 hrs by CellTiterGlo assay
Conditions: chlorocebus sabaeus, vero, 72 h
experimental-endpoint: CC50

>  <molecule>
COCCNC(=O)c1ccc2c(c1)[n+]([O-])c(O)c(C#N)[n+]2[O-]

>  <obs-value>
> 16 µg/mL

$$$$
>  <molecule>
COc1ccc2c(c1)[n+]([O-])nc(N[C@@H]1C[C@H]3CC[C@@H]1C3)[n+]2[O-]

>  <obs-value>
> 50 µg/mL

$$$$
>  <molecule>
[O-][n+]1nc(N[C@@H]2C[C@H]3CC[C@@H]2C3)[n+]([O-])c2ccc(F)cc21

>  <obs-value>
< 2.5 µg/mL

$$$$

Shift focus to the following entry.
Prompt line: I have this compound here, O=C(Cn1ccnc1[N+](=O)[O-])NCCO , and I need its recorded CC50.
Response line: > 16 µg/mL
